System: Hs-578T
assay_text: NCI tumour cell line growth inhibition, 48 h
Calls of active or inactive are those of the source. No stated cut-off is given here; in the data, active = GI50 up to about 1.1 µM and inactive = higher.
measure: GI50

The following compounds have reported results that may help.
N/C(=N\c1ccc(Cl)cc1)NS(=O)(=O)c1c(C(F)(F)F)cccc1C(F)(F)F : 17.9 µM (inactive)
N/N=C1/C2CN3CCN(C2)CC1(c1ccc([N+](=O)[O-])cc1)C3 : 14.7 µM (inactive)
O=C(O)Cc1cccc2c(=O)c3cccc([N+](=O)[O-])c3oc12 : > 100 µM (inactive)
C(=N\c1nc2cc3sc(/N=C/c4ccccc4)nc3cc2s1)/c1ccccc1 : > 45.9 µM (inactive)
O=C(O)C(Sc1ccc(Cl)cc1)Sc1ccc(Cl)cc1 : 38.3 µM (inactive)
NC(Cc1ccccc1)(C(=O)O)C(=O)O : > 100 µM (inactive)
CC(=O)NCCc1c[nH]c2ccc(Cl)cc12 : > 100 µM (inactive)
Cc1cc(N=C2C=C(Br)C(=O)C(Br)=C2)cc(CN(CC(=O)O)CC(=O)O)c1O : > 100 µM (inactive)

# get_value(readout='GI50', item= "CC(=O)/N=C1\C=C(NC(C)=O)C(=O)c2ccccc21" ) 6.28 µM (inactive)

What does the record list as GI50 for "COc1ncc(C=C(C#N)C#N)c(OC)n1" ? 60.7 µM (inactive)

// query GI50 value for entry CCOC(=O)C(NC(=O)CC)(Nc1cc(C)on1)C(F)(F)F (stereo unspecified) > 100 µM (inactive)
